Values compiled from patent US7572786B2.

biological target: UniProtKB P29371; test: Signal transduction (ST), intracellular Ca++ (FLIPR), NK3; format: cell-based; settings: read-out: pIC50 NK3 (converted)
Sequence (P29371 whole entry): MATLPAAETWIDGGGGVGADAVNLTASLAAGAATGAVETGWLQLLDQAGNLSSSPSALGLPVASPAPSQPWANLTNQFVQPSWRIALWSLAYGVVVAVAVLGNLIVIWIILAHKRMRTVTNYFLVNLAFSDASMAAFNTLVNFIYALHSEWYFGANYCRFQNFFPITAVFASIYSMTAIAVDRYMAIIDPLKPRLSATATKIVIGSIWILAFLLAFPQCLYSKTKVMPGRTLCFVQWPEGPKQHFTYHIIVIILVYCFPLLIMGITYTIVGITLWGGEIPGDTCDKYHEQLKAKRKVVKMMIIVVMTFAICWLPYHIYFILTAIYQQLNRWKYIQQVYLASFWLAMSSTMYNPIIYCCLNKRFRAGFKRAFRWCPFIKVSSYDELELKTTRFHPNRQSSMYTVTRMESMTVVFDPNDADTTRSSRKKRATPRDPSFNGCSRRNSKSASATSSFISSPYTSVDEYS
Here the recorded IC50 is given for each entry.
Report as a plain number; the unit nM is understood.

| COMPOUND | MEASURED_ENDPOINT | OUTPUT_UNIT | RECORDED_NUMBER |
| --- | --- | --- | --- |
| O=C(c1sccc1COCc1ccccc1)N1CCCC(N2CCN([C@H]3CCN(C(=O)c4cc(C(F)(F)F)cc(C(F)(F)F)c4)[C@H](Cc4ccccc4)C3)CC2)C1 (stereo partly shown) | IC50 | nM | 631 |
| N#Cc1cccc(C(=O)N2CCCC(N3CCN([C@H]4CCN(C(=O)c5cc(C(F)(F)F)cc(C(F)(F)F)c5)[C@H](Cc5ccccc5)C4)CC3)C2)c1 (stereo partly shown) | IC50 | nM | 794 |
| O=C(c1ccc(CCOCc2ccccc2)s1)N1CCCC(N2CCN(C3CCN(C(=O)c4cc(C(F)(F)F)cc(C(F)(F)F)c4)C(Cc4ccccc4)C3)CC2)C1 (stereo not shown) | IC50 | nM | 5010 |

The value of IC50 measured for the compound O=C(c1cc(C(F)(F)F)cc(C(F)(F)F)c1)N1CC[C@H](N2CCN(C3CCCN(c4cnccn4)C3)CC2)C[C@H]1Cc1ccccc1 (stereo partly shown) turned out to be 794
